Structures can show the parent of a compound that is named as a salt.
log10(Ki), human sigma 1 receptor (Homo sapiens, UniProt Q99720): measured values
The figures below represent log10 of Ki, where Ki is stated in nM.

Find the recorded log10(Ki) belonging to Cn1nc(C(F)(F)F)cc1OC[C@@H]1CC[C@@H]1CN1CCCC1 [Example 23, hydrochloride] and report it.
1.48

Would you mind doing Cn1nc(OC[C@@H]2CC[C@@H]2CN2CCCC2)cc1C(F)(F)F [Example 21, hydrochloride] as well?
1.28

Would you mind doing Cc1cc(OC[C@@H]2CC[C@@H]2CN2CCOCC2)nn1-c1ccc(Cl)c(Cl)c1 as well?
2.25

Would you mind doing Cc1cc(OC[C@@H]2CC[C@@H]2CN2CCCC2)nn1-c1ccc(Cl)c(Cl)c1 [Example 15] as well?
1.70

Would you mind doing c1ccc(OC[C@@H]2CC[C@@H]2CN2CCCC2)cc1 as well?
0.85

Would you mind doing Cc1cc(OC[C@@H]2CC[C@@H]2CN2CCCC2)nn1-c1ccc(Cl)c(Cl)c1 [Example 27, hydrochloride] as well?
1.86

Would you mind doing Clc1ccc(-n2ccc(OC[C@@H]3CC[C@@H]3CN3CCOCC3)n2)cc1Cl [Example 26, hydrochloride] as well?
1.13

Would you mind doing Cn1nc(OC[C@H]2CC[C@H]2CN2CCCC2)cc1C(F)(F)F [Example 34, hydrochloride] as well?
1.45

---

Ki, human sigma 1 receptor (Homo sapiens, UniProt Q99720): measured values
Where a name gives a salt, the structure may show the parent alone.
Numeric only. Scale: nM

Find the recorded Ki belonging to Cn1nc(OC[C@@H]2CC[C@@H]2CN2CCOCC2)cc1C(F)(F)F [Example 22, hydrochloride] and report it.
5.6

Would you mind doing Clc1ccc(OC[C@@H]2CC[C@@H]2CN2CCOCC2)cc1Cl [Example 19, hydrochloride] as well?
3.7

Would you mind doing c1ccc(OC[C@@H]2CC[C@@H]2CN2CCOCC2)cc1 [Example 17, hydrochloride] as well?
33.9
